self-cleavage overview
B1: CPEB3 Ribozyme (parent)
chain: UAACAGGGGGCCACAGCAGAAGCGUUCACGUCGCAGCCCCUGUCAGAUUCUGGUGAAUCUGCGAAUUCUGCUGUAUAUCUC

variants of: B1; assay: self-cleavage, relative activity (ratio to wild type); higher = more cleavage; in vitro, sequencing
quantity.name: self-cleavage

>>> print(df.to_string())
   mutation_key  quantity_name  observed_value
0     C44G U60C  self-cleavage            0.38
1     G19U C40A  self-cleavage            0.21
2     C29U A75G  self-cleavage            0.46
